Target: human TLR9 (Homo sapiens)
Sequence (Q9NR96 26-1032): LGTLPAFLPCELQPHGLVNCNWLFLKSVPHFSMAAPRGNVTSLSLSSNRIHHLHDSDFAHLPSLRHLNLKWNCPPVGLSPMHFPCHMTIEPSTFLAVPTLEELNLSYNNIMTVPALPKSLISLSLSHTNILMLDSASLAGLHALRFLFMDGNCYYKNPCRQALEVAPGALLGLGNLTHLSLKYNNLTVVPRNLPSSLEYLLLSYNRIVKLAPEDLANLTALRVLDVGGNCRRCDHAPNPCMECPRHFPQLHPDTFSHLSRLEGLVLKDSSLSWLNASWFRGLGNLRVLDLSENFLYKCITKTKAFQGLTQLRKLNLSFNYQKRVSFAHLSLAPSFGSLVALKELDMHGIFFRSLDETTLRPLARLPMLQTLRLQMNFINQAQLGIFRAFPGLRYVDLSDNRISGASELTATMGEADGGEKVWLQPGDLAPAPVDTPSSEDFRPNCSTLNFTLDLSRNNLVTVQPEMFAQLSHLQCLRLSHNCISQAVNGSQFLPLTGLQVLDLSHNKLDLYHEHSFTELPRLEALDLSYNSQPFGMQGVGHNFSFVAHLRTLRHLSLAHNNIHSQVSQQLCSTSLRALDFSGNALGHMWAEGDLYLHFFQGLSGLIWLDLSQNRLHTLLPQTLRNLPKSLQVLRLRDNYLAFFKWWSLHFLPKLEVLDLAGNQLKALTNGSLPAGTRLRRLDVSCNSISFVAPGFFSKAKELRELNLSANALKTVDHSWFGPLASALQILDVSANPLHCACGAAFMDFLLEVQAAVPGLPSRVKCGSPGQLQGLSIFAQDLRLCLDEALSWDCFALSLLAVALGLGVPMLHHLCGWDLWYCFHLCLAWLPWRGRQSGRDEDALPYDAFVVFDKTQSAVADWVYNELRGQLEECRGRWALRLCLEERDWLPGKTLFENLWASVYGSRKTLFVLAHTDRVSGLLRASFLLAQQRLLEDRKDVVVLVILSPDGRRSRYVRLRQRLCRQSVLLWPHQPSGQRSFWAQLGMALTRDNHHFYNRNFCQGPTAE
Experiment: TLR9 inhibition reporter assay (HEK-Blue SEAP)
Conditions: HEK-Blue cells overexpressing human TLR9, ODN2006 5 nM, 22 hour incubation
pIC50: −log10 of the molar value.
Examples of molecules with documented pIC50 follow.

Some molecules with known pIC50 results, for comparison:
CCc1cc2c(cc1-c1cc(OC)c3ncnn3c1)[nH]c(=O)n2[C@@H]1CCCN(C2CCOC2)C1 (stereo partly drawn) [Example 213]; < 4.30
Cc1cc2c(cc1-c1cc(C)c3ncnn3c1)[nH]c(=O)n2[C@@H]1CCCN(C2COC2)C1 [Example 18]; < 4.30

Attention now turns to another entry.
I would be grateful if you could share the reported pIC50 for COc1cc(-c2cc3[nH]c(=O)n(C4CCN(C5CCOC5)CC4)c3cc2C(C)C)cn2ncnc12 (stereo not drawn) [Example 162] .
< 4.30

* * *

Molecular target: human TLR9 (Homo sapiens)
Assay: TLR9 inhibition reporter assay (HEK-Blue SEAP)
Details: HEK-Blue cells overexpressing human TLR9, ODN2006 5 nM, 22 hour incubation
Lab note: compare IC50 with 8 µM, writing Criterion met if less and Criterion not met if equal or more.

Solved entries:
COc1c(C)c(-c2cc3[nH]c(=O)n(C4CCC(N5CCC6(CC5)COC6)CC4)c3cc2C(C)C)cn2ncnc12 (single isomer, unassigned) [Example 267]; Criterion not met
CCCN1CCC[C@@H](n2c(=O)[nH]c3cc(-c4cn5ncnc5c(C)c4C)c(C(C)C)cc32)C1 [Example 150]; Criterion not met

Is it true that IC50 reported for COc1cc(-c2ccc3c(c2)[nH]c(=O)n3C2CCN(C(C)C)CC2)cn2ncnc12 [Example 77] is less than 8 µM?
Criterion met

Decide: IC50 of CCC(CC)CN1CCC[C@@H](n2c(=O)[nH]c3cc(-c4cc(OC)c5ncnn5c4)c(C(C)C)cc32)C1 [Example 148] strictly below 8 µM?
Criterion not met

Consider the molecule CCc1cc2c(cc1-c1cc(OC)c3ncnn3c1)[nH]c(=O)n2[C@@H]1CCCN(CC)C1 [Example 171] . Is its IC50 strictly less than 8 µM?
Criterion not met

Does CCCN(CCC)[C@H]1CC[C@@H](n2c(=O)[nH]c3cc(-c4cn5ncnc5c(C)c4C)c(C(C)C)cc32)CC1 [Example 199] have IC50 strictly under 8 µM?
Criterion met

API: query returns whether the molecule falls strictly under 8 µM in IC50. Query: Cc1cc2c(cc1-c1cc(C)c3ncnn3c1)[nH]c(=O)n2[C@@H]1CCCN(Cc2cccnc2)C1 [Example 46]
Criterion met

Dear colleague, could you confirm whether IC50 of CCc1cc2c(cc1-c1cc(OC)c3ncnn3c1)[nH]c(=O)n2[C@@H]1CCCN(CC(C)C)C1 [Example 177] falls below 8 µM? Thanks.
Criterion not met

Lab note: confirm whether the reported IC50 for this molecule is below 8 µM, equality not counting. molecule: Cc1c(-c2cc3[nH]c(=O)n([C@H]4CC[C@@H](NCC5CCOCC5)CC4)c3cc2C(C)C)cn2ncnc2c1C [Example 200]
Criterion met

Regarding CCC(CC)CN1CCC(n2c(=O)[nH]c3cc(-c4cc(OC)c5ncnn5c4)c(C(C)C)cc32)CC1 [Example 165] , kindly confirm whether its IC50 is beneath 8 µM.
Criterion not met

API: query returns whether the molecule falls strictly under 8 µM in IC50. Query: COc1cc(-c2cc3[nH]c(=O)n([C@@H]4CCCN(C5CCOC5)C4)c3cc2C(C)C)cn2ncnc12 (stereo partly shown) [Example 216]
Criterion not met

Check if IC50 falls below 8 µM for Cc1c(-c2cc3[nH]c(=O)n([C@H]4CC[C@@H](NCC(C)(C)C)CC4)c3cc2C(C)C)cn2ncnc2c1C [Example 190] .
Criterion met

# strict comparison: is reported IC50 < 8 µM? input = COc1cc(-c2cc3[nH]c(=O)n(C4CCC(N5CCNC(=O)C5)CC4)c3cc2C(C)C)cn2ncnc12 (stereo not shown) [Example 243]
Criterion not met

Confirm or reject: IC50 of COc1cc(-c2cc3[nH]c(=O)n([C@H]4CCCN(C5CCOCC5)C4)c3cc2C(C)C)cn2ncnc12 [Example 124] lies strictly below 8 µM
Criterion not met
